Items are presented alongside their recorded Kd.
Target: T1, CR17 of LRP (human, UniProt Q07954 2770-2817)
T1 chain (looked up): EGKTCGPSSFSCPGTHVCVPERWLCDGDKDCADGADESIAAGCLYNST

| Binder | Kd |
| --- | --- |
| TEELRVRLASHLRALRARLL (peptide, UniProt P02649 148-167, looked up) [Ub-ApoE(130-149)(K143/146A)] | 3.46 mM |
| TEELRVRLASH (peptide, UniProt P02649 148-158, looked up) [Ub-ApoE(130-140)] | > 5 mM |
